STUDY SYSTEM: human recombinant MAO-A (Homo sapiens)
Sequence (P21397 whole entry): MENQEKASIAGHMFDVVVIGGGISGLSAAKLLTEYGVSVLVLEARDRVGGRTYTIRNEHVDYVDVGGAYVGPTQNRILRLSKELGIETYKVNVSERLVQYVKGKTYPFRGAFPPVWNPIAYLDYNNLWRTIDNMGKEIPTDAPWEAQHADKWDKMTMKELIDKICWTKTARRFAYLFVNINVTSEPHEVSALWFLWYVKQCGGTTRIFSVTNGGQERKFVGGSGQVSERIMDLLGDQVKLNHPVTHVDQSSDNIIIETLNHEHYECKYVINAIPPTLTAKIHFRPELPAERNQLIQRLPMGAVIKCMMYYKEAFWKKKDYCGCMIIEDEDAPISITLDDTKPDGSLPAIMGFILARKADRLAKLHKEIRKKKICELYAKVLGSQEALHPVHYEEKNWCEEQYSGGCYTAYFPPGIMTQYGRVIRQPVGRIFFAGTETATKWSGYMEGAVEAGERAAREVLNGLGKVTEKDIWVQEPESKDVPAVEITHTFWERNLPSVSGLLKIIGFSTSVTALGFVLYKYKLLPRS
EXPERIMENTAL DETAILS: kynuramine oxidation deamination assay, MAO-A inhibition (IC50)
SETUP CONDITIONS: kynuramine 80 μM, mean ± S.D. of triplicate
OBSERVED PROPERTY: pIC50
In textbook form, pIC50 equals minus log to base ten of the concentration in mol/L.

**Query** Assign pIC50 to the following record: COc1cc(O)c2c(=O)cc(-c3ccc(NCC4CC4)cc3)oc2c1
**Result** 4.41

**Query** Kindly indicate its recorded pIC50. Item: COc1cc(O)c2c(=O)cc(-c3ccc(NC(C)C)cc3)oc2c1
**Result** 4.39

**Query** Look up pIC50 of COc1cc(OC)c2c(=O)cc(-c3ccc(NCC4CC4)cc3)oc2c1 and report it.
**Result** 4.41
